The origin of these recorded values is paper PMC10825487.

Reported inhibition at 700 µM values for a set of compounds
molecular target: DENV2 NS2B-NS3 protease (Dengue virus type 2); assay: DENV2 NS2B-NS3 protease inhibition assay; format: biochemical
Sequence (P29990 1346-1475): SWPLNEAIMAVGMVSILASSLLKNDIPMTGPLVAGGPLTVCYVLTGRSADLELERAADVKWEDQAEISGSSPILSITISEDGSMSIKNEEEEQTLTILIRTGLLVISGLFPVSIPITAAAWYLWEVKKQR
Sequence (P29990 1476-1653): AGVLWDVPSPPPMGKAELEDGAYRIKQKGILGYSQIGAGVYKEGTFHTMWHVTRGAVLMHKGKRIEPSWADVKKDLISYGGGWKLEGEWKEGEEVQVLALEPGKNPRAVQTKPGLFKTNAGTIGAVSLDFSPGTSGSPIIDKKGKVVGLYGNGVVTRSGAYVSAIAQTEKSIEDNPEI
Expressed in %, but write only the number.

In [3]: df
Out[3]:
                                   compound            value_kind  observed_value
0  O=c1c(O)c(-c2ccc(O)c(O)c2)oc2cc(O)cc(O)c12 [Quercetin, reference compound]  inhibition at 700 µM            90.3
1  Fc1ccc(-c2nc3cc4nc5ccccc5nc4cc3[nH]2)cc1  inhibition at 700 µM            84.8
2  FC(F)(F)Oc1ccc(-c2nc3cc4nc5ccccc5nc4cc3[nH]2)cc1  inhibition at 700 µM            63.3

Query the reported inhibition at 700 µM for DENV2 NS2B-NS3 protease (Dengue virus type 2); item: "CC(C)c1ccc(-c2nc3cc4nc5ccccc5nc4cc3[nH]2)cc1"
75.7

Would you kindly repeat that for "Oc1ccccc1-c1nc2cc3nc4ccccc4nc3cc2[nH]1" ?
46.6

Would you kindly repeat that for "COc1ccc(-c2nc3cc4nc5ccccc5nc4cc3[nH]2)cc1[N+](=O)[O-]" ?
83.5

Would you kindly repeat that for "Oc1ccc(-c2nc3cc4nc5ccccc5nc4cc3[nH]2)cc1" ?
60.3

Would you kindly repeat that for "COc1cc([N+](=O)[O-])ccc1-c1nc2cc3nc4ccccc4nc3cc2[nH]1" ?
83.9

Would you kindly repeat that for "Oc1c(Br)cccc1-c1nc2cc3nc4ccccc4nc3cc2[nH]1" ?
70.8
